Target: PIKfyve (Homo sapiens)
Construct: endogenous in cells; host or cells: VCaP
Sequence (Q9Y2I7 whole entry): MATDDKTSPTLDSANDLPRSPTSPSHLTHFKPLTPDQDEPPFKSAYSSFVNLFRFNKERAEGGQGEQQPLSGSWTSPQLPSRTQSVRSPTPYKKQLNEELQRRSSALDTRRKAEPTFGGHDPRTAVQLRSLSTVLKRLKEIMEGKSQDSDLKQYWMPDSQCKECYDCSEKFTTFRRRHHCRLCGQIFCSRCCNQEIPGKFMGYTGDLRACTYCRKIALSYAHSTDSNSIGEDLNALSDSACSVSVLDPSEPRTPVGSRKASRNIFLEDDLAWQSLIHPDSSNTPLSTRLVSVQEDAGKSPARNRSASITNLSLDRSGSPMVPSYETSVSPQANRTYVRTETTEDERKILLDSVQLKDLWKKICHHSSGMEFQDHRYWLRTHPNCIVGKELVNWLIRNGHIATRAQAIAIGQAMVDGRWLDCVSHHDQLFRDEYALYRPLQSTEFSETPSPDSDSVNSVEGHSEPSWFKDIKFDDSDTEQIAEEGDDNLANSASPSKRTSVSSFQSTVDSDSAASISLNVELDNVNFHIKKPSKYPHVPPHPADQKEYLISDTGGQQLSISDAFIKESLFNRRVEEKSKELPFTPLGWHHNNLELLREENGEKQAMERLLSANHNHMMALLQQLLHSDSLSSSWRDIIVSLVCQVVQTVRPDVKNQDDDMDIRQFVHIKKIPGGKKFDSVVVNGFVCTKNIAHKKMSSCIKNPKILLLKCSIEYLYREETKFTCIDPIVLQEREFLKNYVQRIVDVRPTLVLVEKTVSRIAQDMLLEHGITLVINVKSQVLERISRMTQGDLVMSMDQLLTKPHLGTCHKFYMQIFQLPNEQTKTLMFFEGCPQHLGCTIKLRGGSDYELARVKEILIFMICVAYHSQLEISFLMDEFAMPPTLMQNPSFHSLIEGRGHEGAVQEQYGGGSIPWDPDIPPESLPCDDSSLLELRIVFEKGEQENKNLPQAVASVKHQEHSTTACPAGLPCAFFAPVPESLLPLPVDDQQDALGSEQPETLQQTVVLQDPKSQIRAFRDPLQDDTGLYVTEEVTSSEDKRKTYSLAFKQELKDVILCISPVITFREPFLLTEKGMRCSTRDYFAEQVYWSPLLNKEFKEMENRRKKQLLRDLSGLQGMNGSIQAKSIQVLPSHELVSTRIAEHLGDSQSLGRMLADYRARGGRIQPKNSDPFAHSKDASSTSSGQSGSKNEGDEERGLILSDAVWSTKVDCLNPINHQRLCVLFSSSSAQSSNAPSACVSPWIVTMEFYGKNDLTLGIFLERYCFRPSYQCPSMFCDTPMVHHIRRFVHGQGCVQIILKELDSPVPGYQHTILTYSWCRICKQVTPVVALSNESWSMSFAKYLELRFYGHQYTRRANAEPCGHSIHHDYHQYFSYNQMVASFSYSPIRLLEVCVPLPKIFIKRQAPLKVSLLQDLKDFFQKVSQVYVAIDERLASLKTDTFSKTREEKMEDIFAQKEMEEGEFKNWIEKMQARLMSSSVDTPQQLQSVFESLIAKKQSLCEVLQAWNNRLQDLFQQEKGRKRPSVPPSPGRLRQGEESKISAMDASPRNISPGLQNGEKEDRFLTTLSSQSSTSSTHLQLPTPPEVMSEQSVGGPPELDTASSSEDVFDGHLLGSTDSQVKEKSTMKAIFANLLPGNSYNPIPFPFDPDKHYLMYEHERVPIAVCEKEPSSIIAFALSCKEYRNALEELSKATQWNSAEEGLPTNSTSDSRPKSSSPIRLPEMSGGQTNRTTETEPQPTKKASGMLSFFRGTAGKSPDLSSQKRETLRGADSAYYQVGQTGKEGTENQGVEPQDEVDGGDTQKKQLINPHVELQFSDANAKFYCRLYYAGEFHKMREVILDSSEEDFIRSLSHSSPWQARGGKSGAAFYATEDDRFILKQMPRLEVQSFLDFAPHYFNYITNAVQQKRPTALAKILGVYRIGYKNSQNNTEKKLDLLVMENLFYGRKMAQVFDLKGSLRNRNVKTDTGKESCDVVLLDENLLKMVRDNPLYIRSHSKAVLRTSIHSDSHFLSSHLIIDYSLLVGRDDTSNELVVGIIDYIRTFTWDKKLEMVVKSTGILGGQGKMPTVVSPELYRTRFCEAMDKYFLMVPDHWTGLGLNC
Assay: Degradation of PIKfyve proteins in VCaP tumor cells (24 h, Western blot)
Format: cell-based
Details: 37° C., compared with DMSO control, WB, read-out: DC50 (concentration that achieves 50% degradation activity)
Listing of entries alongside the reported DC50.

{"columns": ["Molecule", "DC50"],
 "data": [
  ["Cc1cccc(-c2ccn(-c3cc(N4CCOCC4)nc(OCCc4ccc(N5CCN(CC6CCN(c7cc8c(cc7F)C(=O)N(C7CCC(=O)NC7=O)C8=O)CC6)CC5)cc4)n3)n2)c1 (stereo not drawn)", "100 to 10000 nM"],
  ["Cc1cccc(-c2ccn(-c3cc(N4CCOCC4)nc(Oc4ccc(N5CCN(CC6CCN(c7cc8c(cc7F)C(=O)N(C7CCC(=O)NC7=O)C8=O)CC6)CC5)cc4)n3)n2)c1 (stereo not drawn)", "100 to 10000 nM"],
  ["Cc1cccc(/C=N/Nc2cc(N3CCOCC3)nc(OCCc3ccc(NC(=O)CCCCCCC(=O)Nc4ccc5c(c4)C(=O)N(C4CCC(=O)NC4=O)C5)cc3)n2)c1 (stereo not drawn)", "1 to 100 nM"]
]}

Source: patent US20260317299A1
